B1: LINE1-full (parent)
chain: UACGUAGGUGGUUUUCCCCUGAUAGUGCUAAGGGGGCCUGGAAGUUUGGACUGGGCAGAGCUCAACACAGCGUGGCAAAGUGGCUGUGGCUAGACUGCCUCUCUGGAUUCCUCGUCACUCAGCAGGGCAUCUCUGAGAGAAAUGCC

- Variants of: B1
- assay.text: self-cleavage, relative activity (ratio to wild type); higher = more cleavage; in vitro, sequencing; the parent is a self-cleaving ribozyme
Binary call on self-cleavage: Met from 1 upward, Not met beneath that.

Previously resolved entries follow.
>  <variant.name>
C3G A50U

>  <group.label>
Not met

$$$$
>  <variant.name>
U14A U104A

>  <group.label>
Met

$$$$
>  <variant.name>
A92G G144A

>  <group.label>
Not met

$$$$
>  <variant.name>
U23A U109C

>  <group.label>
Met

$$$$

Ask: Form field: self-cleavage at least 1? Entry: A6G G7U
Reply: Met

Ask: Now try C90U U108A .
Reply: Not met

Ask: Now try A2G U109C .
Reply: Met

Ask: Now try G34U U100C .
Reply: Met

Ask: Now try U52C U109C .
Reply: Not met

Ask: Now try A50G U52G .
Reply: Not met

Ask: Now try C19U U132C .
Reply: Not met

meta.source: the RNAGym collection of RNA variant scans (doi:10.7554/elife.90254)
